- targetDesc: Cellular tumor antigen p53 (Homo sapiens) (UniProt P04637)
- Sequence (P04637 whole entry, looked up): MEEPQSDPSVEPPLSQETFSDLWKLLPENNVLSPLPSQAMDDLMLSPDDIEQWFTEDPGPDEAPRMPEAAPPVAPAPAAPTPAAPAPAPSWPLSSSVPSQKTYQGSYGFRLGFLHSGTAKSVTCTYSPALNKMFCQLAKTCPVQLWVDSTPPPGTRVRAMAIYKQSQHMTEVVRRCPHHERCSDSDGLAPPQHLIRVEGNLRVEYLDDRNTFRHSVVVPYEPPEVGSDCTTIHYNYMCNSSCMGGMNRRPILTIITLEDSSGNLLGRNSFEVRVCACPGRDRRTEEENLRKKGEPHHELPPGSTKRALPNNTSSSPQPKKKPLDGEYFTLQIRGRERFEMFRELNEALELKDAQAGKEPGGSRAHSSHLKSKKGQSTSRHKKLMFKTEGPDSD
- methodDescription: TOX21_p53_BLA_p2_ratio: Tox21 HCT-116 p53 Agonism Beta-lactamase Assay, Ratio, Phase 2 (AID 2283592)
Inconclusive results are not listed. Activity calls are given as the source filed them. How the source made its calls: active means hit-call score of the fitted dose curve at least 0.9, where 1 is the maximum; inconclusive means response in the unintended direction; inactive means score below 0.9.
Respond only with the outcome that fits, drawn from active, inactive

Could you check what this test reported for CC(C)N1CCN(c2ccc(OC[C@H]3CO[C@](Cn4cncn4)(c4ccc(Cl)cc4Cl)O3)cc2)CC1 ?
inactive

Please indicate how the test categorized O=C(CCN1CCN2CCCC2C1)N1c2ccccc2Sc2ccc(Cl)cc21 (stereo not given) .
inactive

Look up the recorded call for O=C1c2c(O)ccc([N+](=O)[O-])c2C(=O)c2c([N+](=O)[O-])ccc(O)c21 in this test.
active

Tell me the recorded outcome of this test for CCCCCOc1ccc(C2SC(=O)NC2=O)cc1OCC (stereo not given) .
inactive

// return assay outcome for C[C@@H](O)[C@H]1C(=O)N2C(C(=O)[O-])=C(SC3Cn4cnc[n+]4C3)[C@H](C)[C@H]12 (stereo not given in full)
inactive

All figures here come from PubChem BioAssay (EPA / NIEHS).
